// provenance: patent US20170226072A1

Molecular target: VMAT2 (Rattus norvegicus, UniProt Q01827)
Construct: conducted using isolated synaptic vesicle preparations; from tissue; host or cells: rat striatum, isolated synaptic vesicles
Sequence (Q01827 whole entry): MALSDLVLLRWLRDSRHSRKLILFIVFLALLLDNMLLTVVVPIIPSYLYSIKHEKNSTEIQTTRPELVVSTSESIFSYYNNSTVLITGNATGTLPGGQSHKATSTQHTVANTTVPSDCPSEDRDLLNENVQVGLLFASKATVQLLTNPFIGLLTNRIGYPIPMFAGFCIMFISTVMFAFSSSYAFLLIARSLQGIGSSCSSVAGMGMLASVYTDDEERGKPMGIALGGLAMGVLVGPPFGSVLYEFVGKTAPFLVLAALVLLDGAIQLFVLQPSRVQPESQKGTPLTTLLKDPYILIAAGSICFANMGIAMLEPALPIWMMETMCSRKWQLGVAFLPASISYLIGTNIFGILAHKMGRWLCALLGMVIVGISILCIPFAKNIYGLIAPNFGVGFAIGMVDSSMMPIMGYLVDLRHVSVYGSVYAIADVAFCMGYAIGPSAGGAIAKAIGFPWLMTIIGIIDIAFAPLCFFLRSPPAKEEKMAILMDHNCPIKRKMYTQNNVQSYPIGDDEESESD
Experiment: [3H]Dopamine ([3H]DA) uptake assay, vesicular preparation
Assay type: biochemical
Conditions: rat striatal synaptic vesicles, 0.1 μM [3H]DA; read-out: [3H]DA Uptake (Ki) VMAT2
quantity: Ki
Kindly write the number and append the unit.

API: value(readout=Ki, system=VMAT2 (Rattus norvegicus, UniProt Q01827)) for record COc1ccc(CCC2CCN(CCc3ccc(OC)cc3)CC2)cc1 [Compound 23]
160 nM

Same again, this time with COc1cccc(CCC2CCN(CCc3cccc(OC)c3)CC2)c1 [Compound 16]
85 nM

And for Clc1ccccc1CCN1CCC(CCc2ccccc2)CC1 [Compound 10] ?
47 nM

Similarly, c1ccc(CCN2CCN(CCc3ccccc3)CC2)cc1 [Compound 54, 1,4-diphenethylpiperazine] ?
110 nM

Request: Clc1ccccc1CCN1CCCN(CCc2ccccc2Cl)CC1 [Compound 69]
170 nM

###

Target: VMAT2 (Rattus norvegicus, UniProt Q01827)
Construct: conducted using isolated synaptic vesicle preparations; from tissue; host or cells: rat striatum, isolated synaptic vesicles
Test: [3H]Dopamine ([3H]DA) uptake assay, vesicular preparation
Format: biochemical
Conditions: rat striatal synaptic vesicles, 0.1 μM [3H]DA; read-out: [3H]DA Uptake (Ki) VMAT2
quantity: pKi
Scale: negative log10 of molar concentration, which is what pKi denotes.

If you can, please state the reported pKi value of COc1cccc(CCC2CCN(CCc3ccccc3)CC2)c1 [Compound 14] .
7.25

Same thing, different compound: Fc1ccc(CN2CCC(CCc3ccccc3)CC2)cc1 [Compound 53]
6.68

Also Fc1ccc(CCN2CCC(CCc3cc(F)cc(F)c3)CC2)cc1 [Compound 47] , if possible.
7.17

Another compound to check: COc1cccc(CN2CCC(CCc3ccccc3)CC2)c1 [Compound 50]
6.72

Then COc1ccc(CCN2CCN(CCc3ccc(OC)cc3)CC2)cc1 [Compound 57] ?
6.39

Try this compound too: COc1ccc(CCN2CCC(Cc3ccccc3)CC2)cc1 [Compound 8]
6.74

What about COc1cccc(CCN2CCN(CCc3ccccc3)CC2)c1 [Compound 61] ?
7.01

Request: COc1ccc(CCN2CCC(CCc3ccc(F)cc3F)CC2)cc1 [Compound 33]
7.15

Also, Fc1ccc(CCN2CCC(CCc3ccc(F)cc3F)CC2)cc1 [Compound 35] please.
7.37

Can you handle c1ccc(CCN2CCCN(CCc3ccccc3)CC2)cc1 [Compound 65] next?
6.72

Lookup COc1ccc(CCC2CCN(CCc3ccc(F)cc3)CC2)c(F)c1 [Compound 41]
7.22

Next: COc1ccccc1CCN1CCC(CCc2cc(F)cc(F)c2)CC1 [Compound 43]
7.47

// query: COc1cccc(CCN2CCC(CCc3ccc(OC)cc3F)CC2)c1 [Compound 38]
7.08

Similarly, COc1ccc(CCN2CCN(CCc3ccccc3)CC2)cc1 [Compound 62] ?
7.00

Also check COc1ccc(CCN2CCC(Cc3ccccc3)CC2)cc1OC [Compound 7]
6.62

// repeat for COc1ccccc1CCC1CCN(CCc2ccccc2OC)CC1 [Compound 12, 1,4-bis(2-methoxyphenethyl)piperidine] and report
8.03

Next up: COc1ccccc1CCN1CCCN(CCc2ccccc2OC)CC1 [Compound 66]
6.72

How about COc1cccc(CCN2CCC(CCc3ccccc3OC)CC2)c1 [Compound 26] ?
7.89

Repeat for the following compound: Fc1ccc(CCN2CCN(CCc3ccccc3)CC2)cc1 [Compound 64]
7.06

Would you kindly repeat that for COc1ccccc1CCC1CCN(CCc2ccccc2)CC1 [Compound 13] ?
7.66

Also COc1ccc(CCN2CCC(CCc3ccc(OC)cc3F)CC2)cc1 [Compound 39] , if possible.
7.36

Likewise for COc1cccc(CCC2CCN(CCc3ccccc3Cl)CC2)c1 [Compound 18] ?
6.38

Try this compound too: COc1cccc(CCC2CCN(CCc3ccc(F)cc3)CC2)c1 [Compound 19]
7.16

For COc1ccccc1CCN1CCC(CCc2ccc(F)cc2F)CC1 [Compound 31] then?
7.39

Could you do the same for Clc1ccccc1CN1CCC(CCc2ccccc2)CC1 [Compound 52] , please?
6.57

Also need Fc1cc(F)cc(CCC2CCN(CCc3ccccc3Cl)CC2)c1 [Compound 46] , thanks.
6.74

Further, for COc1ccc(CCN2CCC(CCc3ccccc3)CC2)cc1 [Compound 4] ?
7.34

// repeat for COc1ccc(CN2CCC(CCc3ccccc3)CC2)cc1 [Compound 51] and report
6.60

What about COc1ccc(CCC2CCN(CCc3ccccc3Cl)CC2)c(F)c1 [Compound 40] ?
7.17

Then what about the compound Fc1ccc(CCN2CCN(CCc3ccc(F)cc3)CC2)cc1 [Compound 59] ?
7.24

Try this compound too: COc1ccccc1CN1CCC(CCc2ccccc2)CC1 [Compound 49]
7.15

Here is the next compound: COc1ccc(CCN2CCC(CCc3cc(F)cc(F)c3)CC2)cc1 [Compound 45]
6.92

Thanks! And COc1ccc(CCC2CCN(CCc3ccccc3OC)CC2)cc1 [Compound 21] ?
7.08

Could you do the same for COc1ccc(CCC2CCN(CCc3ccccc3Cl)CC2)cc1 [Compound 24] , please?
7.40

What would you report for Fc1ccc(CCC2CCN(CCc3ccccc3)CC2)c(F)c1 [Compound 30] ?
7.28

Then Fc1ccc(CCN2CCCN(CCc3ccc(F)cc3)CC2)cc1 [Compound 70] ?
7.07

Same question, Fc1cc(F)cc(CCC2CCN(CCc3ccccc3)CC2)c1 [Compound 42] this time
7.29

Please do the same for COc1ccccc1CCC1CCN(CCc2ccccc2Cl)CC1 [Compound 28] as well.
7.70

Entry Fc1ccc(CCC2CCN(CCc3ccccc3Cl)CC2)c(F)c1 [Compound 34] please
6.96

Entry to check: c1ccc(CCC2CCN(Cc3ccccc3)CC2)cc1 [Compound 48]
6.72
